# target: human Edg-1(S1P1) (Homo sapiens)
# Construct: expressed in transfected cells; host or cells: HEK-293
# Sequence (P21453 whole entry): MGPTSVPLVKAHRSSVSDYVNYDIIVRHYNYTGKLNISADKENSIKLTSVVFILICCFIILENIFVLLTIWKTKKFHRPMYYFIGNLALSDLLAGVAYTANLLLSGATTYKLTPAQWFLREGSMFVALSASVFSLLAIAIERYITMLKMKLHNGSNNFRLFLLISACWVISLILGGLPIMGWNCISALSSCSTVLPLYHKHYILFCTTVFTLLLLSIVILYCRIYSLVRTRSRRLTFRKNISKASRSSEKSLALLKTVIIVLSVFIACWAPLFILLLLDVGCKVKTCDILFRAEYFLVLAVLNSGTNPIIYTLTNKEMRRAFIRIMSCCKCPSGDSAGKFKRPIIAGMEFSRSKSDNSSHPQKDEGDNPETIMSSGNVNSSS
# assay-summary: Membrane system binding test: inhibition of [33P]-S1P binding to the membrane fraction of Edg-1(S1P1) gene transferred HEK-293 cells
# study-conditions: test compound 10^-5 M; [33P]-S1P 0.1 nM; 1 hour at 30° C.; HEK-293 membrane fraction; read-out: Edg-1(S1P1) binding inhibition rate (membrane system binding test)
measured-endpoint: inhibition at 10 µM (%)

>>> endpoint_value("CCn1c(OC)nnc1[C@@H](Cc1ccccc1F)NS(=O)(=O)c1ccc(Cl)c(Cl)c1")
98.6
>>> endpoint_value("CCn1c(OC(C)C)nnc1[C@@H](C)NS(=O)(=O)c1cc(Cl)c(Cl)s1")
86.4
>>> endpoint_value("CCn1c(OC(C)C)nnc1[C@@H](C)NS(=O)(=O)c1cc(F)cc(F)c1")
79
>>> endpoint_value("CCn1c(OCc2ccccc2)nnc1[C@@H](Cc1ccccc1)NS(=O)(=O)c1ccc(Cl)c(Cl)c1")
96.9
>>> endpoint_value("CCn1c(OC)nnc1[C@@H](Cc1ccc(F)cc1)NS(=O)(=O)c1ccc(Cl)c(Cl)c1")
99.8
>>> endpoint_value("CCn1c(OC)nnc1[C@@H](Cc1ccc(-c2ccccc2)cc1)NS(=O)(=O)c1ccc(Cl)c(Cl)c1")
85.4
>>> endpoint_value("CCn1c(OCC(F)(F)F)nnc1[C@@H](C)NS(=O)(=O)c1ccc(C(F)(F)F)cc1")
81.6
>>> endpoint_value("CCn1c(OC2CCCCC2)nnc1[C@@H](Cc1ccccc1)NS(=O)(=O)c1ccc(Cl)c(Cl)c1")
98.3
>>> endpoint_value("CCn1c(OCC(F)(F)F)nnc1[C@@H](C)NS(=O)(=O)c1cccc(C(F)(F)F)c1")
73.3
>>> endpoint_value("CCn1c(OC(C)C)nnc1[C@@H](C)NS(=O)(=O)c1cccc(C(F)(F)F)c1")
75.8
>>> endpoint_value("CCn1c(OCC(F)(F)F)nnc1[C@@H](C)NS(=O)(=O)c1cccc(Br)c1")
75.7
>>> endpoint_value("CCCOc1nnc([C@@H](Cc2ccc(C)cc2)NS(=O)(=O)c2ccc(Cl)c(Cl)c2)n1CC")
98
>>> endpoint_value("CCn1c(OC(C)C)nnc1[C@@H](C)NS(=O)(=O)c1cccc(Br)c1")
76.3
>>> endpoint_value("CCn1c(OC(C)C)nnc1[C@@H](C)NS(=O)(=O)c1ccc(Cl)c(Cl)c1")
97.1
>>> endpoint_value("CCn1c(OCC(F)(F)F)nnc1[C@@H](C)NS(=O)(=O)c1ccc2nsnc2c1")
89.1
>>> endpoint_value("CCCOc1nnc([C@@H](Cc2ccccc2)NS(=O)(=O)c2ccc(Cl)c(Cl)c2)n1CC")
100
>>> endpoint_value("CCn1c(OCC(F)(F)F)nnc1[C@@H](C)NS(=O)(=O)c1ccc(F)c(F)c1")
75.7
>>> endpoint_value("CCn1c(SC)nnc1C(Cc1ccc(C(F)(F)F)cc1)NS(=O)(=O)c1ccc(Cl)c(Cl)c1 (stereo not shown)")
83.5
>>> endpoint_value("CCn1c(OC(C)C)nnc1[C@@H](C)NS(=O)(=O)c1cccc(OC(F)F)c1")
88.8
>>> endpoint_value("CCCOc1nnc([C@@H](Cc2ccc(OC)cc2)NS(=O)(=O)c2ccc(Cl)c(Cl)c2)n1CC")
89.7
>>> endpoint_value("CCn1c(OC(C)C)nnc1[C@@H](C)NS(=O)(=O)c1ccc(Br)cc1")
89.5
>>> endpoint_value("CCn1c(OCC(F)(F)F)nnc1[C@@H](C)NS(=O)(=O)c1cccc(Cl)c1C")
88.5
